# protocolText: yeast display, Sf9 membrane polyspecificity reagent, FACS + sequencing; frameworks hold sequencing errors
measuredMetric: polyreactivity (PSR sort gate)

{"columns": ["sequence", "val"],
 "data": [
  ["QVQLVESGGGLVQAGGSLRLSCAASGITFNGYAMGWYRQAPGKERELVAAISSSGGRTRYADSVKGRFTISRDNAKNTVYLQMNSLKPEDTAVYYCNARGYGQSNYWGQGTQVTVSS", "high polyreactivity"],
  ["QVQLVESGGGLVQAGGSLRLSCAASGSTFPFYALGWYRQAPGKERELVAVIRGSGGRTYYADSVKGRFTISRDNAKTTVYLQMNSLKPEDTAVYYCAVKLARLYDSGYNYWGQGTQVTVSS", "high polyreactivity"],
  ["QVQLVESGGGLVEAGGSLRLSCAASGLTFEVYAMGWYRHAPGKERELVAVITSVGSTNYADSVKGRFTISRDNAKNTVYLQMNSLKPEDTAVYYCAADKWTVRRFNPYTYYRYDYWGQGTQVTVSS", "low polyreactivity"],
  ["QVQLVESGGGLVQAGGSLRISCAASGRIYPVYVMGWYRQAPGKERELVAAINYNGGSTTYADSVKGRFTISRDNAKNTVYLQMNSLKPADTAVYYCAAGTPAYVETEYEYWGQGTQVTVSS", "low polyreactivity"],
  ["QVQLEESGGGLVQAGGSLRLSCAASGIIIATYAMGWYRQAPGKERELVAVISNDGSTHYADSVKGRFTISRDNAKNTVYLQMNSLKPEDTAVYYCNAEEIDEASYAYPPLEYDYWGQGTQVTVSS", "low polyreactivity"],
  ["QVQLVESGGGLVQAGGSLRLSCAASGRTFGGYAMGWYRQAPGKERELVAAINYSGGTTYYADSVKGRFTISRDNAKNTVYLQMNSLKPEDTAVYYCAASDCYGLFYGGPTWWKGHDYWGQGTQVTVSS", "high polyreactivity"],
  ["QVQRVESGGGLVQAGGSLRLSCAASGSTFRRYTMGWYRQAPGKERELVAAITYRGSSTYYADSVKGRFTISRDNAKNTVYLQMNSLKPEDTAVYYCAADARYTGYYYWGQGTQVTVSS", "high polyreactivity"],
  ["QVQIVDSGGGLVQAGGSLRLSCAASGRTFNYYAKGWYRQAPGKERQLVAAISKSGGSTYYADSVKGRFTISRDNEKNTVYLQMNSLKPEETAVYYCAALTTHAPHSYNYWGQGTQVTVSS", "low polyreactivity"],
  ["QVQLVESGGGLVQAGGSLRLSCAASGRTFTVNPMGWYRQAPGKERELVAAITSGGTTKYADSVKGRFTISRDNAKNTVYLQMNSLKPEDTAVYYCAARVYFPVQYPWFYFEYGYWGQGTQVTVSS", "high polyreactivity"],
  ["QVQLVESGGGLVQAGGSLRLSCAASGLIFRHYAMGWYRQSPGKEREFVAAITWSGGSTYYADSVKGRFTISRDNAKNTVYLQMNSLKPEDTAVYYCAAEGPGYGPTGDFYWYTYYYWGQGSQVTVSS", "low polyreactivity"],
  ["QVQLVESGGVLVQGGGSLRLSCAASGSIFPFYALGWYRQAPGKERELVATNSWSGGRTYYADSVKGRFTKSRDNAKTNVYLQINILIPEDTAVYYCAAGSYHYPNAYYYWGQGTQLTVSS", "high polyreactivity"],
  ["QVQLVESGGGLVQAGGSLRLRCAASGSIIVPNAMGWYRQAPGKERELVAAISGRGGSTYYADSEKGRFTISRDNAKNTVSLQMKSLKPEDTAVYYCAAQDTYHSYGLYSWGQGTQVTVSS", "low polyreactivity"],
  ["QVQLVESGGGLVQAGGSLRLSCAASGFTFWFNAMGWYRQSRGTERELVPTIRRSGGTTYYADSVKGRFTISRDKAKNTVYLQMNSLKPEDTAVYYCAADDYYYPGTVYYFTPGYNYWGQGTQVTVSS", "low polyreactivity"],
  ["QVQLVESGGGLVQAGGSLRLSCAASGITFPFYAMGWYRQAPGKERELVAAISWSDVDTYYADSVKGRFTISRDNAKNTVYLQMNSLKPEDTAVYYCAVSGVHPYWSDYEYWGQGTQVTVSS", "low polyreactivity"],
  ["QVQLVESGGGLVQAGGSLRLSCAASGRIFKRYAMGWSRQAPGKDRELVATITTSGDSTYYADSVKGRFTISRDNAKNTVYLQMNSLKPEDTAVYDCAARSYRGRRYDYWGQGTQVTVSS", "high polyreactivity"],
  ["QVQLVESGGGIVQAGGSLLLSCAASGRIFEKYALGWYRQAPGKDRELVAAISYSGGSTYYADSVKGSFTSSRDKAKNTVYFQMNSLKPEDTAVYYCARYSRTQAYDYWGQGTQVTVSS", "high polyreactivity"],
  ["QVQLVESGGGLVQAGGSLRLSCAASGSIFAQYTMGWYRQAPGKERELVAVISINGVSTYYADSVKGRFTISRDNAKNTVYLQMNSLKPEDTAVYYCNAGISPYEALGYWGQGTQVTVSS", "low polyreactivity"],
  ["QVQLVESGGGLVQAGGRLRLSCAASGSIFQSYALAWYRQAPGKERELVAVITGGGGSTYYADSVKARFTISRDNAKNTVYLQMNSLKPEDTAVYYCNADFPSFGVIYSTRKDDSWGQGTQVTVSS", "low polyreactivity"],
  ["QVQLVESGGGLVQAGGSLRLSCAASGIIFQGYVMGWYRQAPGKERELVAVISRTGGSTYYADSVKGRFTISRDNAKNTVYLQMNSLKPEDTAVYYSSAGTPRLRYLQGHRMNYWGKGTQVTVSS", "high polyreactivity"],
  ["QVQLVESGGGLVQAGGSLRLSCAASGSIFDYYTMGWYRQAPGKERELVATIRSGDSTNYADSVKGRFTISRDNAKNTVYLQMNSLIPEDTAVYYCAADDGAYPTLYDYWGQGTQVTVST", "low polyreactivity"],
  ["QVQLEESGGGVVQAGGSLRLSCAASGGTFSRYAMGWYRQATGKERELVAAITRSGASTFYADSVKGRFTISRDNAKNTVYLQMNSLKPEDTAVYYCAADTYVYNEYDYWGQGTQVTVSS", "high polyreactivity"]
]}

---

# protocolText: yeast display, Sf9 membrane polyspecificity reagent, FACS + sequencing; frameworks hold sequencing errors

{"columns": ["sequence", "polyreactivity (PSR sort gate)"],
 "data": [
  ["QVQLVESGGGLVQAGGSLRLSCAASGFTFDAYTMGWYREAPGKERELVAAINWSGDTTYYADSVKGRFTISRDNAMNTVYLQMNSLKPEDTAVYYCAAVWLNYGVWFDYWGQGTQVTVSS", "high polyreactivity"],
  ["QVQLVESGGGLVQAGGSLRLSCAASGITFRTNAMGWYRQAPGKERDLVAAIRTGYSTYYADSVKGRFTISRDNAKNPVYLQMNSLKPEDTAVYYCNAVRYSPVFRRKYDYWGQGTQVTVSS", "high polyreactivity"]
]}

---

# protocolText: yeast display, Sf9 membrane polyspecificity reagent, FACS + sequencing; frameworks hold sequencing errors
measuredMetric: polyreactivity (PSR sort gate)

{"columns": ["sequence", "val"],
 "data": [
  ["QVQLEESGGGLVQAGGSLRLSCAASGSIFVGYALGWYIQAPGKERELVASITTRGGSTHYADYVKGRFTISRDNAKNTVYLQMNSLKPEDTAVYYCAADSLSNGVLQYLPGYDYWGQGTQVTVSS", "low polyreactivity"],
  ["QVQLVESGGGLFQAGGSLRLSCAASGITFHRYDMVWYRQAPGKERELVADITWCGGSTYYADSVKGRFTISRDNAKNTVYLQMNSLKPEDTAVYYCAADASTYTDTPYDYWGQGSQVTVSS", "low polyreactivity"],
  ["QVQLVESGGGLVQAGGSLRLSCAASGYTLFRNAMGSYRQAPGKERELGAAISRSGARTYYADSVKGRFTISRDNAKNTVYLQMNSLKPEDTAVYYCAAVIKWTKDDYWGQGTQVTVSS", "high polyreactivity"],
  ["QGQLVESGGGLVQAGGSLRLSCAASGSTFDNYAMGWYRQAPGKERELVAAISSSSSRTYYADSVKGRFTISRDNAKNTVYLQMNSLKPADTAVYYCAKRRSIGYYYWGQGTQVTVSS", "high polyreactivity"],
  ["QDQLVESGGGLVQAGGSLRLSCAPSGRTFRYNAMGWYIQAPVKERELVAAINWNCGSTYYADSVKGRFTISRDNAKNTVYLQMNSLKPEDTAVYYCNADFYHRYDWGQGTQVTVSS", "high polyreactivity"]
]}

---

# protocolText: yeast display, Sf9 membrane polyspecificity reagent, FACS + sequencing; frameworks hold sequencing errors

{"columns": ["sequence", "polyreactivity (PSR sort gate)"],
 "data": [
  ["QVQLVESGGGLVQAGGSLRLSCAASGSTFVIYAMGWYRQAPGKERELVAAITISGGRTYYADSVKGRFTISRDNAKNTVYLQMNSLKPEDTAVYYCAATVVSTYPYGYGSTFVRDDYWGQGTQVTVSS", "low polyreactivity"],
  ["QVQLVESGGGLVQAGGSLRLSCAASGRISYANAMGWYRQAPGKERELVASITYSAGSTYADSVKGRFTISRDNAKYTVYLQMNSLKPEDSAVYYCNAYHVIYARESDYWGQCTQVTVSS", "low polyreactivity"],
  ["QVQHAESGGGLVQAGGSLRLSCAASGSTSAKNVMGWYRQAPGKVRELVAAISRSGGRTYYADSVKGRFTISRDNAKNTVYLQMNSLNPEDTAVYYCAARSATNHADDYYYWGQGTQVTVSS", "high polyreactivity"],
  ["QVQLVESGGGLVQAGGTLRLSCAASGRIFSRYVMGWYRQAPGKQRELVASISWSGGSTRYADSVKGRFTISRDNAKNTVYVQMNSLKPEDTAVYYCAARFILSKYGSGVRYNYWGQGTQVTVSS", "high polyreactivity"],
  ["QVQLVESGGGLVQEGGSLRLSCAASGLIFSYYAMGWYRQAPGKERELVAAISWSGASTFYADSVKGRFTISRDNAKNTVYLQMNSLKPEDTAVYYCAADTYGKTYYYWGQGTLVTVSS", "low polyreactivity"],
  ["QVQLVESGGGLDQAGGSLRLSSAASGFIFDGNAMGWYRQAPGKERELVASITKSSGRTYYADSVKGRFTISRDNAKNTVYLQMNSLKPEDTAVYYCNKARRSVQPYGRQYDYWGQGTQVTVSS", "high polyreactivity"],
  ["QVQLVESGGGLVQAGGSLRLSCAASGFTFTSNAMGWYRQAPGKEREFVADISNIGGDTTYADSVKGRFTISRDNAKNTVYLQMNSLKPEDTAVYYCNADFAFIENDYWGQGTQVTVSS", "low polyreactivity"],
  ["QVQLVESGGGLVQAGGSLRLSCAASGYIFPDYPMGWYRPATGKERELVAAFTSSGGRTYYADSVKGRFTISRDNAKNTVYLQMNSLKPEDTAVYYCAAVSVLKKTFDYWGQGTQVTVSS", "high polyreactivity"],
  ["QVHLVESGGGLVQAGGSLRLSCDASGSTFYCYAMGWYRQAPGKERELVASISWSGGRSYYADSVKGRFTISRDNAKNTDYLQMNSLYPEDTAVYYCAARRKGRYDYWGQGTQVTVSS", "high polyreactivity"],
  ["QVQLVESGGGLVQAGGSLRLSCAAAGLIFSAYAMGWYRQAPGKEREVVAAISRSGGITYYADSVKGRFTISRDNAKNTVYLQMISLKPEDTAVYYCNARWYDPTLKFGYWGQGTQVTVSS", "high polyreactivity"],
  ["QVQLVESGGGLVQAGGSLRLSCAASGRIFIYYAMGRYRQAPGKERELVAGIDYSGGSTYYADSVKGRFTISRDNAKNTVYLQMNSLKPEDTAVYFCAAGKYRHYYGRSFYRFDYWGKGTQVTVSS", "high polyreactivity"]
]}
